Could you please report measured melting point for the items listed next?

melting point measured on "CCOC(=O)c1c(-c2ccc(C)cc2)nc2ccccn12" = 88 °C

melting point measured on "COc1ccc2c(c1)c(C1CCN(CCOc3ccccc3C(=O)O)CC1)cn2Cc1ccoc1" = 153 to 154 °C

melting point measured on CCNC(=O)N1CCN(C2CCCc3ccc(OC)cc32)CC1 (stereo not given) = 141 to 143 °C

melting point measured on CCOC(=O)C(CC)CCc1cc(-c2ccccc2)nc2ccccc12 (stereo not given) = 76 °C

melting point measured on CCOC(=O)c1cnc2c(c1O)CC(CC)CC2 (stereo not given) = 218 to 220 °C

melting point measured on "CC1(C)C=C(c2ccc3ccccc3n2)c2cc(C#N)ccc2O1" = 102 to 104 °C

melting point measured on "N#CCSc1nc(NCc2ccc3c(c2)OCO3)cc(-c2ccccc2)n1" = 140 to 142 °C

melting point measured on "COC(=O)c1c(C)c(OC)cc(O[Si](C)(C)C(C)(C)C(C)C)c1C=O" = 69 to 70 °C

melting point measured on "CC(C)c1c(Sc2cc(Cl)cc(Cl)c2)nc(CO)n1C" = 167 to 168 °C

melting point measured on "Cc1cc(C(=O)c2cccs2)cc(C)c1OCC(=O)O" = 115 °C

Cited source for all entries: a melting point compilation (Tetko et al.; mined from patent text by program, amines drawn as free bases though some values may be those of a salt)
